- System: Anti-Fas-induced Jurkat cells
- Protocol: Anti-Fas-induced apoptosis of Jurkat cells in vitro (Caspase 3 substrate Ac-DEVD-AMC fluorescence)
- Assay type: cell-based
- Reported conditions: Homo sapiens; Jurkat Clone E6-1, Anti-Fas 50 ng/mL, 24 hours, Ac-DEVD-AMC 10 μM

| Structure string | Study system | EC50 [nM] |
| --- | --- | --- |
| O=C(O)C[C@H](NC(=O)c1ccc(NC(=O)OCc2ccccc2)cc1)C(=O)COc1c(F)c(F)cc(F)c1F | Anti-Fas-induced Jurkat cells | 215 |
| CC(C)(C)c1ccccc1NC(=O)C(=O)N1CCCO[C@@H](C(=O)N[C@@H](CC(=O)O)C(=O)COc2c(F)c(F)cc(F)c2F)C1 | Anti-Fas-induced Jurkat cells | 383 |
| O=C(O)C[C@H](NC(=O)[C@@H]1CCCN(C(=O)OC2CCCC2)C1)C(=O)COc1c(F)c(F)cc(F)c1F | Anti-Fas-induced Jurkat cells | 22.1 |
| O=C(O)C[C@H](NC(=O)[C@H]1COCCN(C(=O)C(=O)Nc2ccccc2Cl)C1)C(=O)COc1c(F)c(F)cc(F)c1F | Anti-Fas-induced Jurkat cells | 5.65 |
| CC(C)[C@@H]1CC[C@@H](C)C[C@H]1OC(=O)N1CCC(C(=O)N[C@@H](CC(=O)O)C(=O)COc2c(F)c(F)cc(F)c2F)CC1 | Anti-Fas-induced Jurkat cells | 112 |
| CC(C)(C)c1ccccc1NC(=O)C(=O)N1CC=CC[C@H](C(=O)N[C@@H](CC(=O)O)C(=O)COc2c(F)c(F)cc(F)c2F)C1 | Anti-Fas-induced Jurkat cells | 27.2 |
| O=C(O)C[C@H](NC(=O)C1CCN(C(=O)OCc2ccccc2)CC1)C(=O)COc1c(F)c(F)cc(F)c1F | Anti-Fas-induced Jurkat cells | 29.3 |
| CC1(C(=O)N2CCC(C(=O)N[C@@H](CC(=O)O)C(=O)COc3c(F)c(F)cc(F)c3F)CC2)CCCC1 | Anti-Fas-induced Jurkat cells | 21 |
| O=C(O)C[C@H](NC(=O)C1CCN(C(=O)O[C@@H]2C[C@H]3CC[C@@H]2C3)CC1)C(=O)COc1c(F)c(F)cc(F)c1F | Anti-Fas-induced Jurkat cells | 31.5 |
| O=C(O)C[C@H](NC(=O)C1CCN(C(=O)OCC(F)(F)F)CC1)C(=O)COc1c(F)c(F)cc(F)c1F | Anti-Fas-induced Jurkat cells | 14.6 |
| Cn1c(C(=O)N2CCC(C(=O)N[C@@H](CC(=O)OC(C)(C)C)C(=O)COc3c(F)c(F)cc(F)c3F)CC2)cc2ccccc21 | Anti-Fas-induced Jurkat cells | 39.7 |
| O=C(O)C[C@H](NC(=O)C1CCN(C(=O)c2nccc3ccccc23)CC1)C(=O)COc1c(F)c(F)cc(F)c1F | Anti-Fas-induced Jurkat cells | 43 |
| O=C(O)C[C@H](NC(=O)[C@@H]1CCCN(C(=O)C(=O)NC2CCCC2)C1)C(=O)COc1c(F)c(F)cc(F)c1F | Anti-Fas-induced Jurkat cells | 21.1 |
